test: rapamycin-like changes in RPL19A-GFP expression – cell-based, S. cerevisiae, multiplex flow cytometry, primary screen (AID 1862);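 note: lower values mimic rapamycin by blocking the RPL19A rise seen in DMSO cells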; conditions: S. cerevisiae RPL19A-GFP strain, flow cytometry fluorescence, 3 h; at 10 µM; hits give low values
Results filed as inconclusive are left out. Active and inactive are the calls of the source. Cut-off read from the data, not from the text of the source: active = percent of DMSO control GFP below about 86%; inactive = the rest, inconclusive results apart.
measurementType: percent of DMSO control GFP

[[record]]
compound = "COc1ccccc1OCC(=O)O"
datavalue = "96.3% (inactive)"

[[record]]
compound = "Cc1cc(C)nc(NS(=O)(=O)c2ccc(N)cc2)n1"
datavalue = "108% (inactive)"

[[record]]
compound = "OC(CCCN1CCC(O)(c2ccc(Cl)cc2)CC1)c1ccc(F)cc1 (stereo not given)"
datavalue = "99.6% (inactive)"

[[record]]
compound = "NS(=O)(=O)c1cc(C2(O)NC(=O)c3ccccc32)ccc1Cl (stereo not given)"
datavalue = "101% (inactive)"

[[record]]
compound = "Cc1ccc2[nH]c(=O)c(Cc3ccccc3)c(O)c2c1"
datavalue = "102% (inactive)"

